- Experimental system: Nuclear receptor ROR-alpha (Homo sapiens) (UniProt P35398)
- Sequence (P35398 whole entry, looked up): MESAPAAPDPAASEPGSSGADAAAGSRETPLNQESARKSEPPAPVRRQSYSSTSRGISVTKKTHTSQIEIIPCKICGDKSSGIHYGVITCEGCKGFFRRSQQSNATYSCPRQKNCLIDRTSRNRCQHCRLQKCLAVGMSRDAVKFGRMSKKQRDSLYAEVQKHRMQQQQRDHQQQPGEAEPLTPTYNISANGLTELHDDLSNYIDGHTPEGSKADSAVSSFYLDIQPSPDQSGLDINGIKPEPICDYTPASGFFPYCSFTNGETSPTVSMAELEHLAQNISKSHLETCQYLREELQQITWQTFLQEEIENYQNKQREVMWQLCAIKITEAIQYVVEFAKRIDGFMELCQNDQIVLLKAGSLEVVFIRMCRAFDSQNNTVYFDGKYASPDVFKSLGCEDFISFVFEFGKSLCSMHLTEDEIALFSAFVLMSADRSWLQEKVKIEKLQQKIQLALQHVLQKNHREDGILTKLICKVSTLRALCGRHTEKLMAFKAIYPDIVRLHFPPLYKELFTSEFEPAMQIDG
- Assay comment: activators of orphan receptor RORA, primary screen, cell-based, luminescence (AID 560)
- Condition description: CHO-K1 Gal4-RORA LBD luciferase reporter, at 10 µM, stronger effect = higher value, percent increase over mock-subtracted basal signal
Hit rate of the full screen: of about 65,000 compounds, about 980 (1.5%) were called active. This excerpt belongs to a sample that is enriched for actives.
Would you mind labelling by activation? At or over 20% is Met, under is Not met.

Examples from the recorded data:
compound=N#Cc1nc(COc2ccc(-c3ccccc3)cc2)oc1NCc1cccnc1 class="Not met"
compound=COc1ccc(-c2nc(SCC(=O)N3CCOCC3)n[nH]2)cc1 class="Not met"
compound=O=C(C1CCN(S(=O)(=O)Cc2ccccc2)CC1)N1CCCc2ccccc21 class="Not met"
compound=CCOC(=O)c1csc(NC(=O)c2ccc(S(=O)(=O)N3CCCC3)cc2)n1 class="Not met"

**Q:** State whether the measured activation reaches 20%, counting equality as reaching it, for O=C(O)CSCc1nc2ccccc2s1
**A:** Not met

**Q:** Check if activation >= 20% (inclusive). Item: COc1ccc(C(=O)Nc2nncs2)c(OC)c1
**A:** Met

**Q:** Say whether CC(C)(C)NC(=O)Cn1nnc(-c2ccccc2Cl)n1 shows activation of 20% or more.
**A:** Met

**Q:** Say whether CC(=O)Nc1cccc(-c2cnc3ccccc3n2)c1 shows activation of 20% or more.
**A:** Met

**Q:** Is reported activation greater than or equal to 20% here: O=C(Cc1nn[nH]n1)NCCC1=CCCCC1
**A:** Not met
